Assay: NOVARTIS: Cytotoxicity against human hepatocellular carcinoma cell line (Huh7)
Format: toxicity, cell-based, Huh-7
Conditions: Huh7 cells (hepatocellular carcinoma cell line)
quantity measured: CC50

| molecule | quantity measured | result |
| --- | --- | --- |
| COc1cccc(OC)c1C(=O)Nn1c(-c2cccc(C)c2)nc2ccccc2c1=O | CC50 | > 10 µM |
| CCOc1cc(-c2nnc3[nH]c(=O)n(C)c(=O)c3n2)ccc1OC(C)C | CC50 | > 100 µM |
| COc1cccc(C(=O)N(CCCC(C)Nc2cc(OC)cc3cccnc23)Cc2ccc(OC)c(OC)c2)c1 (configuration not stated) | CC50 | > 4.01 µM |
| Cc1cccc(NC(=O)c2sc3nc4c(c(-c5cccs5)c3c2N)CCCCC4)c1 | CC50 | > 100 µM |
| COc1cc(CN(CC[C@H](c2ccccc2)c2c(O)ccc3ccccc23)Cc2ccccc2)cc(OC)c1 | CC50 | > 10 µM |
| CCOC(=O)c1[nH]c(C)c(CNc2cccc(F)c2)c1C | CC50 | > 10 µM |
| CC(C)NC(=O)N1CCN(C(=O)COC(c2cccs2)c2cccnc2Cl)CC1 (configuration not stated) | CC50 | > 10 µM |
| CCCOc1ccc2c(c1)C(=NN=C(N)N)c1cc(OCCC)ccc1-2 | CC50 | > 10 µM |
| O=C(NCCc1ccccc1)c1cnc(NCCCn2ccnc2)nc1NC1CCCC1 | CC50 | > 8.69 µM |
| CC(Cl)=CCc1c(C)nc2c(ccc3ccccc32)c1O | CC50 | > 100 µM |
| Cc1ccc(C(=O)c2c(C)oc3ccc(O)cc23)cc1 | CC50 | > 10 µM |
| CCCOc1ccc(Cc2c(C)nc3ccc(Br)cc3c2O)cc1 | CC50 | > 10 µM |
| O=C(NCCCCNc1ccnc2cc(Cl)ccc12)c1ccc([N+](=O)[O-])cc1 | CC50 | > 10 µM |
| COc1ccc(C(NC(=O)c2cccnc2)c2cc(Cl)c3cccnc3c2O)cc1 (configuration not stated) | CC50 | > 100 µM |
| Cc1nc2ccccn2c1C1(O)C(=O)Nc2c(Cl)cc(Cl)cc21 (configuration not stated) | CC50 | > 10 µM |
| CN(Cc1cc2ccc(F)cc2n(CCN2CCCCC2)c1=O)CC1COCCO1 (configuration not stated) | CC50 | > 100 µM |
| Cc1nc(NC(=N)N)nc2c(C)cccc12 | CC50 | 16.4 µM |
| CCN(CC)CCCN(Cc1cc2c(C)cc(C)cc2[nH]c1=O)C(=S)NCCCN(C)C | CC50 | > 100 µM |
| Cc1ccc(C)c(Nc2nc(NCc3ccco3)c3ccccc3n2)c1 | CC50 | 5.94 µM |
| Fc1ccc(-c2c[n+](-c3ccccc3)c3n2CCS3)cc1 | CC50 | > 100 µM |
| CCCCNC(=O)CCCNC(=O)Cn1cnc2sc3c(c2c1=O)CCCC3 | CC50 | > 10 µM |
| COCC(=O)Oc1ccccc1-c1nc2cc(C)ccn2c1NC(C)(C)CC(C)(C)C | CC50 | > 6.2 µM |
| CC(=O)Nc1ccc(C2NC(=O)NC3=Nc4ccccc4SC(c4ccccc4)=C32)cc1 (configuration not stated) | CC50 | > 100 µM |
| Cc1sc2c(c1C)CN(Cc1ccco1)CN2C(=O)c1ccco1 | CC50 | > 100 µM |
| COc1ccc(C(=O)C[n+]2ccc3c(c2)nc(-c2ccc(OC)cc2OC)n3C)cc1 | CC50 | > 100 µM |
| CC(C)N1CCC(N2CCN(Cc3ccc4c(c3)Cc3ccccc3-4)CC2CCO)CC1 (configuration not stated) | CC50 | 20.5 µM |
| Cc1cc(Nc2ccc(Cl)c(C)c2)n2nc(C)nc2n1 | CC50 | > 100 µM |
| O=C(CN1CCN(C(=O)c2ccco2)CC1)Nc1ccccc1Br | CC50 | > 100 µM |
| CC(C)C(=O)NC(Nc1cccc([N+](=O)[O-])c1)C(Cl)(Cl)Cl (configuration not stated) | CC50 | > 100 µM |
| Cc1ccc(Nc2cc(C)nc(NCc3ccccc3)n2)cc1 | CC50 | 10.5 µM |
| CCn1c(SCC(=O)N(c2ccccc2)c2ccccc2)nc2sc3c(c2c1=O)CCN(C)C3 | CC50 | > 100 µM |
| CCOc1ccc(CCNC(=O)c2cccs2)cc1OCC | CC50 | > 100 µM |
| Cc1ccn2c(NC(C)(C)CC(C)(C)C)c(-c3ccccc3OC(=O)c3ccccc3F)nc2c1 | CC50 | > 10 µM |
| COc1ccccc1Nc1nc2cc([N+](=O)[O-])c([N+](=O)[O-])cc2nc1Nc1cccc(Cl)c1 | CC50 | > 10 µM |
| CN1CCc2c(C#N)c(N3CCCC3)nc(N3CCCC3)c2C1 | CC50 | > 100 µM |
| CN(C)c1ccc(C2Nc3ccccc3NC3=C2C(=O)CC(C)(C)C3)cc1 (configuration not stated) | CC50 | > 100 µM |
| CC1=C[C@H]2O[C@@H]3C[C@H]4OC(=O)C=CC=C[C@H]([C@@H](C)O)OCC[C@@H](C)[C@H](O)C(=O)OC[C@@]2(CC1)[C@]4(C)[C@@]31CO1 | CC50 | 0.00604 µM |
| Cc1csc(NC(=O)C2c3ccccc3C(=O)N(CC(C)C)C2c2cccs2)n1 (configuration not stated) | CC50 | > 10 µM |
| CC(C)(C)c1ccc(-c2c[n+](-c3ccccc3)c3n2CCCS3)cc1 | CC50 | 7.87 µM |
| CCOc1cc(C(Nc2cc(C)ccn2)c2ccc3cccnc3c2O)ccc1OCc1ccccc1 (configuration not stated) | CC50 | > 10 µM |
| C[n+]1c2n(c3ccccc31)N=C(c1ccccc1)CS2 | CC50 | 45.1 µM |
| CC(C)CN1C(=O)c2ccccc2C(C(=O)Nc2ccccn2)C1c1cccs1 (configuration not stated) | CC50 | > 100 µM |
